Recorded values, source ChEMBL document CHEMBL3046089.

System: Radical scavenging activity
experiment.description: Antioxidant activity assessed as DPPH radical scavenging activity at 1 mg/ml after 20 min by spectrophotometric analysis
Assay type: functional
assay.readout: Activity (%)

{"molecule": "CCOC(=O)C1/C(=N/NC(N)=O)C=C(c2ccc(F)cc2)CC1c1ccc(F)cc1 (stereo not drawn)", "observed": 66.5}
{"molecule": "CCOC(=O)C1=C(N)C=C(c2ccc(F)cc2)CC1c1ccc(F)cc1 (stereo not drawn)", "observed": 68}
{"molecule": "COC(=O)C1=C(N)C=C(c2ccc(F)cc2)CC1c1ccc(F)cc1 (stereo not drawn)", "observed": 40.9}
{"molecule": "COC(=O)C1/C(=N/NC(N)=O)C=C(c2ccc(F)cc2)CC1c1ccc(F)cc1 (stereo not drawn)", "observed": 65.4}
{"molecule": "N[C@@H](CCC(=O)N[C@@H](CS)C(=O)NCC(=O)O)C(=O)O", "observed": 92.1}
{"molecule": "COC(=O)c1c(OC)cc(-c2ccc(F)cc2)cc1-c1ccc(F)cc1", "observed": 49.1}
{"molecule": "O=c1c2c(-c3ccc(F)cc3)cc(-c3ccc(F)cc3)cc2[nH]n1-c1ccccc1", "observed": 95.2}
{"molecule": "O=C1Nc2ccccc2Nc2cc(-c3ccc(F)cc3)cc(-c3ccc(F)cc3)c21", "observed": 58.7}
{"molecule": "O/N=C1/C=C(c2ccc(F)cc2)CC(c2ccc(F)cc2)C1 (stereo not drawn)", "observed": 89.2}
{"molecule": "O=c1[nH][nH]c2c1C(c1ccc(F)cc1)CC(c1ccc(F)cc1)=C2 (stereo not drawn)", "observed": 95.9}
{"molecule": "O=c1c2c([nH]n1-c1ccc([N+](=O)[O-])cc1)C=C(c1ccc(F)cc1)CC2c1ccc(F)cc1 (stereo not drawn)", "observed": 94.4}
{"molecule": "N/N=C(N)/N=C1/C=C(c2ccc(F)cc2)CC(c2ccc(F)cc2)C1 (stereo not drawn)", "observed": 89.2}
{"molecule": "CCOC(=O)c1c(OC)cc(-c2ccc(F)cc2)cc1-c1ccc(F)cc1", "observed": 50.2}
